experiment: pKa; assay type: physicochemical
REPORTED PROPERTY: pKa

# input Report pKa for Cc1onc(-c2ccccc2)c1-c1ccc(S(N)(=O)=O)cc1 [Valdecoxib] please.
# output ~11

* * *

assay: Solubility in water; type: physicochemical
REPORTED PROPERTY: solubility

# input Report solubility for Cc1ccc(-c2cc(C(F)(F)F)nn2-c2ccc(S(N)(=O)=O)cc2)cc1 [celecoxib] please.
# output < 1 µg/mL
